Where do the numbers come from? From patent US8940742B2.

Give measured pIC50 for each item. Keep answers brief.
# experimental system: RAJI p110 δ (Homo sapiens, UniProt O00329)
# Sequence (O00329 whole entry): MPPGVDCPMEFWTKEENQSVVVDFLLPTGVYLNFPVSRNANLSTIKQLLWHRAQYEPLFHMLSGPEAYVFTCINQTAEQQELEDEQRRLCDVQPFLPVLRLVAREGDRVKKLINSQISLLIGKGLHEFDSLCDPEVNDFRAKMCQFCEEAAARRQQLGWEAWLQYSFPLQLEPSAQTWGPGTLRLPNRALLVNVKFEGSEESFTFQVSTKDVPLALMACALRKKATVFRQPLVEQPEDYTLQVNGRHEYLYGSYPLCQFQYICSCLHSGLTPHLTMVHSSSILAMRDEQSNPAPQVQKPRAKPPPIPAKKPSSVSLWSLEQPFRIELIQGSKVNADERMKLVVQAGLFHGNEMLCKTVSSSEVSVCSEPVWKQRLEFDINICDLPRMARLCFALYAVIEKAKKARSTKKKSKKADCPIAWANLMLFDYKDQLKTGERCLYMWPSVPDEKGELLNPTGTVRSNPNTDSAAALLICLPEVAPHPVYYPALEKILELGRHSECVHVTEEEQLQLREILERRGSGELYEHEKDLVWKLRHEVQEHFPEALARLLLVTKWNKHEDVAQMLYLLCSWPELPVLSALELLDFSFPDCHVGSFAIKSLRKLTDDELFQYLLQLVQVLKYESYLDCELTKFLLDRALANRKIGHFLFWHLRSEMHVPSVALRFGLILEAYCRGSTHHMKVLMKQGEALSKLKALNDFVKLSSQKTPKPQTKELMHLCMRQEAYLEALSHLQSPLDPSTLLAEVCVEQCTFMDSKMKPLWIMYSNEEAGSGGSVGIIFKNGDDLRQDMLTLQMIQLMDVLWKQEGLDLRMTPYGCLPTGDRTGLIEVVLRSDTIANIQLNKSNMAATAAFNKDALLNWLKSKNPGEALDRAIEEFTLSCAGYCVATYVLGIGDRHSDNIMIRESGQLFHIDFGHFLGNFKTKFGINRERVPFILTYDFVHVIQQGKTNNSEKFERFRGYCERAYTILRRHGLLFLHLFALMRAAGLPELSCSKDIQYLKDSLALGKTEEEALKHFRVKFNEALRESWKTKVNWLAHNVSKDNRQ
# Sequence (P27986 whole entry partner): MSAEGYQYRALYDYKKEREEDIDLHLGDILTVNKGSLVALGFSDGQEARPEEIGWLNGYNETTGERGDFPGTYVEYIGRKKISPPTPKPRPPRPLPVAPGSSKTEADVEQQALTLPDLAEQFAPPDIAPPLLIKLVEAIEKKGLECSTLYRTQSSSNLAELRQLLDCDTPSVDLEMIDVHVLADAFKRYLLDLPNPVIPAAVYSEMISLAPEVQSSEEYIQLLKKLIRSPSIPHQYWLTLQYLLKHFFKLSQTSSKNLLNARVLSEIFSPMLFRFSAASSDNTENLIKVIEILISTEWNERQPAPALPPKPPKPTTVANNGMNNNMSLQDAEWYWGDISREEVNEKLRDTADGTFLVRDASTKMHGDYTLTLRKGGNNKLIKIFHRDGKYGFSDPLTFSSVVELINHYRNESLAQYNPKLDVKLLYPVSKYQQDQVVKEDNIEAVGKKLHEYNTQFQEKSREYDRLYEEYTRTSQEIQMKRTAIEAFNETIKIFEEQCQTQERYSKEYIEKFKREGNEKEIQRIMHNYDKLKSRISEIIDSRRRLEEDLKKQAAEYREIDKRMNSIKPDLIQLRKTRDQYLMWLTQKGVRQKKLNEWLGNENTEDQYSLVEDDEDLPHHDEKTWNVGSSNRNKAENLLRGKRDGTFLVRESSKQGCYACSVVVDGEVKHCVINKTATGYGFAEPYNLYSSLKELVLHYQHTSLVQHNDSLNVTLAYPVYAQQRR
# assay remarks: RAJI p110 δ cellular assay (phospho-AKT)
pIC50: −log10 of the molar value.

- smiles representation: "C[C@H](NC(=O)c1cncc2cccnc12)c1cc2cccc(C(F)(F)F)c2c(=O)n1-c1ccccc1"
  pIC50: "> 7.00"
- smiles representation: "C[C@H](NC(=O)c1nc(-c2cncc(NS(C)(=O)=O)c2)cnc1N)c1cc2cccc(Cl)c2c(=O)n1-c1ccccc1"
  pIC50: "6.00 to 7.00"
- smiles representation: "COc1cc(-c2cccc3cc([C@H](C)NC(=O)c4c(N)nn5cccnc45)n(C)c(=O)c23)ccn1"
  pIC50: "> 7.00"
- smiles representation: "C[C@H](NC(=O)c1c(N)nn2cccnc12)c1cc2cccc(Cl)c2c(=O)n1C1CCCCC1"
  pIC50: "> 7.00"

Quick one: give me pIC50 for each item below, same order please.
1. C[C@H](NC(=O)c1nc(-c2cccc(S(=O)(=O)N3CCCC3)c2)cnc1N)c1cc2cccc(Cl)c2c(=O)n1-c1ccccc1
2. Cc1cnc(C(=O)N[C@@H](C)c2cc3cccc(C(F)(F)F)c3c(=O)n2-c2ccccc2)c(N)n1
3. COc1ncc(-c2cccc3cc([C@H](C)NC(=O)c4c(N)nn5cccnc45)n(-c4ccccc4)c(=O)c23)cn1

[out]
1. 5.00 to 6.00
2. 5.00 to 6.00
3. > 7.00

* * *

# experimental system: PI3K α (Homo sapiens, UniProt P42336)
# Sequence (P42336 whole entry): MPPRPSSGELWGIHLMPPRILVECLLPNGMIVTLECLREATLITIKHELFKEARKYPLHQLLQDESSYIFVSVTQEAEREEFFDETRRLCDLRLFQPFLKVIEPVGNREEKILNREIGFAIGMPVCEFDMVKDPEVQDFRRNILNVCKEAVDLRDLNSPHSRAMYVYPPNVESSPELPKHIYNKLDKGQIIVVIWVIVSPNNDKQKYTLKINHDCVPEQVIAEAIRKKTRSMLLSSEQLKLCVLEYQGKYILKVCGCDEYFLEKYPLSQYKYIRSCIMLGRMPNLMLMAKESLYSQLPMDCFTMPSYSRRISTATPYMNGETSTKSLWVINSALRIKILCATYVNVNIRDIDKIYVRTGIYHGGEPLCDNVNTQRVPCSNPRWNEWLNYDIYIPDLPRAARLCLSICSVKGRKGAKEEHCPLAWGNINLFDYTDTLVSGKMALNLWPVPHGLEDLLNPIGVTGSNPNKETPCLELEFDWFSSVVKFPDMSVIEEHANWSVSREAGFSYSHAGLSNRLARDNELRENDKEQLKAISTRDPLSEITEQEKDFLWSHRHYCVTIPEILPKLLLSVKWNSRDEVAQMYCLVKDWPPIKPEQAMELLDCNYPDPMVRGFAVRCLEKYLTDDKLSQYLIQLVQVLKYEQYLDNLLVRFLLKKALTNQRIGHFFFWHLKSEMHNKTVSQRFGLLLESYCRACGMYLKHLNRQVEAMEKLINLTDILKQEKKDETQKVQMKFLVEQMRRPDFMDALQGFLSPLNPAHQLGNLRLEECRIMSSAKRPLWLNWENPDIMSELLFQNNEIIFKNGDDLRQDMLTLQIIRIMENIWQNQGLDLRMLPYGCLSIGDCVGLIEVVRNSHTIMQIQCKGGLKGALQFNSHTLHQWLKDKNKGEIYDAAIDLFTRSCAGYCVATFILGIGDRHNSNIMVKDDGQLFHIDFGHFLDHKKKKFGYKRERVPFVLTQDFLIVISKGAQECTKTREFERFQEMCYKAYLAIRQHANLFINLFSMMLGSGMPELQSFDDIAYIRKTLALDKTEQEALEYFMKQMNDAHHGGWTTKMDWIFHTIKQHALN
# Sequence (P27986 whole entry partner): as the sequence (P27986 whole entry partner) above
experimental endpoint: IC50

- smiles representation: "CNS(=O)(=O)c1cccc(-c2cnc(N)c(C(=O)N[C@@H](C)c3cc4cccc(Cl)c4c(=O)n3-c3ccccc3)n2)c1"
  IC50: "1000 to 10000 nM"
- smiles representation: "COc1ccc(-c2cnc(N)c(C(=O)N[C@@H](C)c3cc4cccc(Cl)c4c(=O)n3-c3ccccc3)n2)cc1NS(C)(=O)=O"
  IC50: "100 to 1000 nM"
- smiles representation: "C[C@H](NC(=O)c1nc(-c2cccc(NS(=O)(=O)N(C)C)c2)cnc1N)c1cc2cccc(Cl)c2c(=O)n1-c1ccccc1"
  IC50: "1000 to 10000 nM"
- smiles representation: "CC(C)Oc1ccc(-c2cnc(N)c(C(=O)N[C@@H](C)c3cc4cccc(Cl)c4c(=O)n3-c3ccccc3)n2)cc1"
  IC50: "> 10000 nM"
- smiles representation: "C[C@H](NC(=O)c1nc(-c2cccc(NS(=O)(=O)C3CC3)c2)cnc1N)c1cc2cccc(Cl)c2c(=O)n1-c1ccccc1"
  IC50: "1000 to 10000 nM"

Form: compound = `C=CC(=O)NCC#Cc1cccc2cc([C@H](C)NC(=O)c3c(N)nn4cccnc34)n(-c3ccccc3)c(=O)c12` ; IC50 = 1000 to 10000 nM

* * *

Give measured IC50 for each item. Keep answers brief.
# experimental system: PI3K α (Homo sapiens, UniProt P42336)

Consider the following illustrative entries.
- smiles representation: "C[C@H](NC(=O)c1c(N)nn2cccnc12)c1cc2cccc(C#CCNC(=O)[C@H]3CCC(=O)O3)c2c(=O)n1-c1ccccc1"
  experimental endpoint: "IC50"
  test value: "1 to 10 µM"
- smiles representation: "C[C@H](NC(=O)c1nc(-c2cncc(NS(C)(=O)=O)c2)cnc1N)c1cc2cccc(Cl)c2c(=O)n1-c1ccccc1"
  experimental endpoint: "IC50"
  test value: "0.1 to 1 µM"
- smiles representation: "C[C@H](NC(=O)c1c(N)nn2cccnc12)c1cc2cccc(Cl)c2c(=O)n1CCNCCO"
  experimental endpoint: "IC50"
  test value: "1 to 10 µM"
- smiles representation: "COc1cncc(-c2cccc3cc([C@H](C)NC(=O)c4c(N)nn5cccnc45)n(-c4ccccc4)c(=O)c23)c1"
  experimental endpoint: "IC50"
  test value: "1 to 10 µM"
- smiles representation: "COc1cc(-c2cccc3cc([C@H](C)NC(=O)c4c(N)nn5cccnc45)n(C4CCCCC4)c(=O)c23)ccn1"
  experimental endpoint: "IC50"
  test value: "> 10 µM"
- smiles representation: "C[C@H](NC(=O)c1c(N)nn2cccnc12)c1cc2cccc(Cl)c2c(=O)n1CC(=O)N(C)C"
  experimental endpoint: "IC50"
  test value: "> 10 µM"
- smiles representation: "C[C@H](NC(=O)c1cnn2cccnc12)c1cc2cccc(Cl)c2c(=O)n1-c1ccccc1"
  experimental endpoint: "IC50"
  test value: "> 10 µM"
- smiles representation: "C[C@H](NC(=O)c1c(N)nn2cccnc12)c1cc2cccc(CO)c2c(=O)n1-c1ccccc1"
  experimental endpoint: "IC50"
  test value: "> 10 µM"
- smiles representation: "COc1ccc(-c2cccc3cc([C@H](C)NC(=O)c4c(N)nn5cccnc45)n(-c4ccccc4)c(=O)c23)cn1"
  experimental endpoint: "IC50"
  test value: "> 10 µM"
- smiles representation: "C[C@H](NC(=O)c1c(N)nn2cccnc12)c1cc2cccc(-c3cccs3)c2c(=O)n1-c1ccccc1"
  experimental endpoint: "IC50"
  test value: "1 to 10 µM"

Quick one: give me IC50 for each item below, same order please.
1. C[C@H](NC(=O)c1c(N)nn2cccnc12)c1nn2ccc(Cl)c2c(=O)n1-c1ccccc1
2. Cc1cnc(C(=O)N[C@@H](C)c2cc3cccc(C(F)(F)F)c3c(=O)n2-c2ccccc2)c(N)n1
3. CC(=O)Nc1ncc(-c2cccc(NS(C)(=O)=O)c2)nc1C(=O)N[C@@H](C)c1cc2cccc(Cl)c2c(=O)n1C
4. Cc1cnc(C(=O)N[C@@H](C)c2c(Br)c3cccc(Cl)c3c(=O)n2-c2ccccc2)c(N)n1
5. CNc1cccc2cc([C@H](C)NC(=O)c3c(N)nn4cccnc34)n(-c3ccccc3)c(=O)c12

[out]
1. > 10 µM
2. > 10 µM
3. > 10 µM
4. > 10 µM
5. 1 to 10 µM

* * *

Give measured IC50 for each item. Keep answers brief.
# experimental system: RAJI p110 δ (Homo sapiens, UniProt O00329)
# assay remarks: RAJI p110 δ cellular assay (phospho-AKT);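 further: potency based on lowered phosphorylated AKT in RAJI cells, as a readout of PI3K-δ dependent B-cell receptor signaling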

- molecule: "C[C@H](NC(=O)c1cnn2cccnc12)c1cc2cccc(Cl)c2c(=O)n1-c1ccc(F)cc1"
  test value: "100 to 1000 nM"

Quick one: give me IC50 for each item below, same order please.
1. C[C@H](NC(=O)c1c(N)nn2cccnc12)c1c(Br)c2cccc(Cl)c2c(=O)n1-c1ccccc1
2. CC[C@H](NC(=O)c1c(N)nn2cccnc12)c1cc2cccc(Cl)c2c(=O)n1-c1ccccc1

[out]
1. < 100 nM
2. < 100 nM

Quick one: give me IC50 for each item below, same order please.
1. COc1ccc(-c2cnc(N)c(C(=O)N[C@@H](C)c3cc4cccc(Cl)c4c(=O)n3-c3ccccc3)n2)cc1OC
2. CC(C)n1c([C@H](C)NC(=O)c2c(N)nn3cccnc23)cc2cccc(Cl)c2c1=O
3. C[C@H](NC(=O)c1c(N)nn2cccnc12)c1cc2cccc(O)c2c(=O)n1-c1ccccc1
4. CC(NC(=O)c1c(N)nn2cccnc12)c1cc2cccc(Cl)c2nc1-c1ccccc1 (stereo not shown)

[out]
1: 100 to 1000 nM; 2: < 100 nM; 3: 100 to 1000 nM; 4: < 100 nM

* * *

Give measured IC50 for each item. Keep answers brief.
# experimental system: PI3K β (Homo sapiens, UniProt P42338)
# Sequence (P42338 whole entry): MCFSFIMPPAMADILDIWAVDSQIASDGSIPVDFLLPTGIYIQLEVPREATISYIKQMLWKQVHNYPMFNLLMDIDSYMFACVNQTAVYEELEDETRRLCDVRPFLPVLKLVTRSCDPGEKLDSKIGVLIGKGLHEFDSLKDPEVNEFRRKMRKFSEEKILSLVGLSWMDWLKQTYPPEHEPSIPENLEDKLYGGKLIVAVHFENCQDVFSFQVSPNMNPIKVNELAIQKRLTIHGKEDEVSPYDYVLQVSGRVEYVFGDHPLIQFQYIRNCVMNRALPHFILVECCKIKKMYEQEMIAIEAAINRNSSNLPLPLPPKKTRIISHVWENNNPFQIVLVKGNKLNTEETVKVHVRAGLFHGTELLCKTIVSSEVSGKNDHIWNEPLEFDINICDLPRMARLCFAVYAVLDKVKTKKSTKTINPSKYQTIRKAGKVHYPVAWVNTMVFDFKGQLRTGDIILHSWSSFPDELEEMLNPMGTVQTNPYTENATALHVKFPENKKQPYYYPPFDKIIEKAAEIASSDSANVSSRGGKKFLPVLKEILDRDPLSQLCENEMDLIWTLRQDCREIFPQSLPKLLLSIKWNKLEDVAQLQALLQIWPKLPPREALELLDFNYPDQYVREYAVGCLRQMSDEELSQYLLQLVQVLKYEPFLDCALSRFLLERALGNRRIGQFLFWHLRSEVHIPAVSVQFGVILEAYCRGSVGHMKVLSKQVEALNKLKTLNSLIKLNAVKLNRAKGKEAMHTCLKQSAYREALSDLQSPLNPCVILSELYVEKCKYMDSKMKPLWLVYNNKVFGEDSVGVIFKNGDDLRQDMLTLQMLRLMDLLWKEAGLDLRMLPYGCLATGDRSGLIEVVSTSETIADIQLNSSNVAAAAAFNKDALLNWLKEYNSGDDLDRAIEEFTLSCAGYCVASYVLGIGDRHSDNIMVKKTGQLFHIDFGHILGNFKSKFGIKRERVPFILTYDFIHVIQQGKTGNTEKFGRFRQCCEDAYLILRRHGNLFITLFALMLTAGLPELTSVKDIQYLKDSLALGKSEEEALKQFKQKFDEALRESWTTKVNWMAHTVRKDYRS
# Sequence (P27986 whole entry partner): as the sequence (P27986 whole entry partner) above

- smiles representation: "C[C@H](NC(=O)c1nc(-c2cccc(NS(C)(=O)=O)c2)cnc1N)c1cc2cccc(Cl)c2c(=O)n1C1CC1"
  IC50: "100 to 1000 nM"
- smiles representation: "C[C@H](NC(=O)c1c(N)nn2cccnc12)c1cc2cccc(Cl)c2c(=O)n1-c1ccccc1"
  IC50: "100 to 1000 nM"
- smiles representation: "C[C@H](NC(=O)c1c(N)nn2cccnc12)c1cc2cccc(Cl)c2c(=O)n1CC(=O)N(C)C"
  IC50: "1000 to 10000 nM"
- smiles representation: "C[C@H](NC(=O)c1c(N)nn2cccnc12)c1cc2cccc(/C=N\\O)c2c(=O)n1-c1ccccc1"
  IC50: "> 10000 nM"

Quick one: give me IC50 for each item below, same order please.
1. C[C@H](NC(=O)c1nc(-c2cncc(NS(C)(=O)=O)c2)cnc1N)c1cc2cccc(Cl)c2c(=O)n1-c1ccccc1
2. Cc1c([C@H](C)NC(=O)c2c(N)nn3cccnc23)n(-c2ccccc2)c(=O)c2c(F)cccc12
3. C=CC(=O)NCCC#Cc1cccc2cc([C@H](C)NC(=O)c3c(N)nn4cccnc34)n(-c3ccccc3)c(=O)c12

[out]
1. < 100 nM
2. 100 to 1000 nM
3. 1000 to 10000 nM

* * *

# experimental system: Raw264.7 p110 γ (Mus musculus)
# Construct: reduction of phospho-AKT in stimulated RAW 264.7 cells; endogenous in cells
# Sequence (Q9JHG7 whole entry): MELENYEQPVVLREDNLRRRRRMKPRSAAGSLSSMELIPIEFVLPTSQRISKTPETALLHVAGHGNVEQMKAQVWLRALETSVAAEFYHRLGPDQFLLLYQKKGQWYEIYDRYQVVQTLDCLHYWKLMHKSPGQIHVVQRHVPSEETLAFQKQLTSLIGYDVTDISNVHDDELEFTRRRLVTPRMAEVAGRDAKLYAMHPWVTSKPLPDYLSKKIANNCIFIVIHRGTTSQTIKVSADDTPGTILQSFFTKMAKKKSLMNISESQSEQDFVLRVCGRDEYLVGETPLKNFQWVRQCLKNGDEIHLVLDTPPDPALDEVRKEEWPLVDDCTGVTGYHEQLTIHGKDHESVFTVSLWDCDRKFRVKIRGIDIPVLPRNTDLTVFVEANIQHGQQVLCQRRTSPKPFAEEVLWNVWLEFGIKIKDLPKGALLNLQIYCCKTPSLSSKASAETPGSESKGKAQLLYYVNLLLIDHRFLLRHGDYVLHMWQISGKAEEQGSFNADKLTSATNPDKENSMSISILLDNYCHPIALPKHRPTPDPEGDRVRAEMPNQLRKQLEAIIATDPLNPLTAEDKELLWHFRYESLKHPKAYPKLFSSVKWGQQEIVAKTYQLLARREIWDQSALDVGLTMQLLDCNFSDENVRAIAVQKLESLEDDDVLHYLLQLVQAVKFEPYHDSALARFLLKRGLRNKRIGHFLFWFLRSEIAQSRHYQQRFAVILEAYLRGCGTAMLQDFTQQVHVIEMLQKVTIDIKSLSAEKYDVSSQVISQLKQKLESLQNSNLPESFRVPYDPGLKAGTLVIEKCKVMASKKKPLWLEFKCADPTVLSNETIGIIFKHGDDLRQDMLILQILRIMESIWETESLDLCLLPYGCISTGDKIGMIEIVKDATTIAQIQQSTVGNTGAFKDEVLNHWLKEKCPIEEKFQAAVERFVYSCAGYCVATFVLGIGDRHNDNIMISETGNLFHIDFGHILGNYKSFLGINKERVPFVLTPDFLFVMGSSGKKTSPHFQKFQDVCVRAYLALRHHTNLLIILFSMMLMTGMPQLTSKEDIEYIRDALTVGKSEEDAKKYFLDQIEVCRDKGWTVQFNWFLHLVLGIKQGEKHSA
# assay remarks: Raw264.7 p110 γ cellular assay (phospho-AKT)
# applied conditions: serum-starved RAW264.7 cells stimulated with C5a
# Text: (b) PI3K-γ Selective Assay Briefly, serum-starved PAW264.7 cells are stimulated with a known GPCR agonist C5a. […] Cells can be treated with test compounds prior to, simultaneously with, or subsequent to the stimulation by C5a. RAW 264.7 cells respond to the complement component fragment C5a through activation of the C5a receptor, and the C5a receptor activates macrophages and induces cell migration.
experimental endpoint: IC50

- smiles representation: "C[C@H](NC(=O)c1cnc2cccnn12)c1cc2cccc(Cl)c2c(=O)n1-c1ccccc1"
  IC50: "100 to 1000 nM"
- smiles representation: "COc1cc(-c2cccc3cc([C@H](C)NC(=O)c4c(N)nn5cccnc45)n(C)c(=O)c23)ccn1"
  IC50: "< 100 nM"
- smiles representation: "C[C@H](NC(=O)c1c(N)nn2cccnc12)c1cc2cccc(-c3ccc(=O)n(C)c3)c2c(=O)n1-c1ccccc1"
  IC50: "< 100 nM"
- smiles representation: "C[C@H](NC(=O)c1nc(-c2cccc(S(=O)(=O)N3CCCC3)c2)cnc1N)c1cc2cccc(Cl)c2c(=O)n1-c1ccccc1"
  IC50: "1000 to 10000 nM"
- smiles representation: "COc1cc(-c2cccc3cc([C@H](C)NC(=O)c4c(N)ncc5cccnc45)n(-c4ccccc4)c(=O)c23)ccn1"
  IC50: "< 100 nM"

Quick one: give me IC50 for each item below, same order please.
1. C[C@H](NC(=O)c1c(N)nn2cccnc12)c1cc2cccc(-c3ccncc3)c2c(=O)n1-c1ccccc1
2. C[C@H](NC(=O)c1nc(-c2csc(S(C)(=O)=O)n2)cnc1N)c1cc2cccc(Cl)c2c(=O)n1-c1ccccc1

[out]
1. < 100 nM
2. 100 to 1000 nM
